# key: entry, value: t½
target: T1, mfNPR1-mFc:hANP complex (monkey; human, UniProt P01160 124-151); test: SPR, mAb captured, 37C
T1 construct: also called monkey NPR1 complexed to ANP
Could you give me the number in h? Just the number is fine.

mAb25491 (antibody, human IgG4, V domains shown) VH: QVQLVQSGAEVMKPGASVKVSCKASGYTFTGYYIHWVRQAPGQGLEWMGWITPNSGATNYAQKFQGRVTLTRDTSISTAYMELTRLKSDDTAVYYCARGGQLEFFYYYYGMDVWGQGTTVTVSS VL: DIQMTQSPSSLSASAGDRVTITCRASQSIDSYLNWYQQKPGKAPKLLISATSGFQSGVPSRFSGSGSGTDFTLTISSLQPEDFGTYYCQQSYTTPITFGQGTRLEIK ... 1.82

# next binder below
Look at this binder and give its reported t½. mAb22033 (antibody, human IgG4, V domains shown) VH: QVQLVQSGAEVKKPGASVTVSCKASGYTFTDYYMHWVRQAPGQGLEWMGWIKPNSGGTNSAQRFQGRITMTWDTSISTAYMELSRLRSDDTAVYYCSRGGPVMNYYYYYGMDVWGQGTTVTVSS VL: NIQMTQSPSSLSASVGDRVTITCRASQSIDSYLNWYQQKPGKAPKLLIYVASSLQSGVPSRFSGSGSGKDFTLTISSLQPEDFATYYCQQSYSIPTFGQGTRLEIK 2.16
